Organism: Gallus gallus
Test: Antiangiogenic activity in chicken embryo chorioallantoic membrane model assessed as inhibition of FGF-induced angiogenesis at 1 uM treated 1 hr after FGF challenge measured after 48 hrs relative to control
Assay type: functional, tissue-based
Assign 1 whenever inhibition does not fall below 60%; assign 0 whenever it does.

{"columns": ["compound", "category_label"],
 "data": [
  ["O=C(O)Cc1cc(I)c(Oc2cc(I)c(O)c(I)c2)c(I)c1", 1],
  ["O=C(Cc1cc(I)c(Oc2cc(I)c(OCC3CO3)c(I)c2)c(I)c1)N1CCCCC1 (stereo not drawn)", 0],
  ["O=C(Cc1cc(I)c(Oc2cc(I)c(O)c(I)c2)c(I)c1)N1CCCCC1", 0],
  ["O=C(O)Cc1cc(I)c(Oc2cc(I)c(OCC3CO3)c(I)c2)c(I)c1 (stereo not drawn)", 1],
  ["CC(C)(C)OC(=O)Cc1cc(I)c(Oc2cc(I)c(O)c(I)c2)c(I)c1", 1],
  ["O=C(Cc1cc(I)c(Oc2cc(I)c(OCC3CO3)c(I)c2)c(I)c1)OCC1CO1 (stereo not drawn)", 0],
  ["CC(C)[Si](OC(=O)Cc1cc(I)c(Oc2cc(I)c(O)c(I)c2)c(I)c1)(C(C)C)C(C)C", 1],
  ["CC(C)[Si](OC(=O)Cc1cc(I)c(Oc2cc(I)c(OCC3CO3)c(I)c2)c(I)c1)(C(C)C)C(C)C (stereo not drawn)", 1]
]}

====

Assay: Dissociation constant, pKa of the compound
Format: physicochemical
readout: pKa

{"columns": ["smiles_notation", "numeric_readout"],
 "data": [
  ["O=C(O)Cc1cc(I)c(Oc2cc(I)c(O)c(I)c2)c(I)c1", 4.3]
]}
